assay: LD50, oral administration, mouse; conditions: in vivo, po
Measurement label: LD50

Q: Reported LD50, compound O=C(CCCCCCCCc1cc(O)ccc1O)c1c(O)cccc1O [Inventive compound] : ____
A: > 2000 mg/kg
